Tested on: SW-620 colon
Experimental Protocol: NCI tumour cell line growth inhibition, 48 h; in the data active = GI50 below about 0.43 µM; inactive = the rest
# valid calls are active, inactive; nothing else

INSERT INTO assay_data (compound, group_label) VALUES
  ('CC(C)c1ccc2c(c1)c(SC(C)(C)C)c(CC(C)(C)C(=O)O)n2Cc1ccc(Cl)cc1', 'inactive'),
  ('COc1ccc(C2NC(=S)NC3=C2COc2ccc(F)cc23)cc1OC (centres undefined)', 'inactive');

# input Could you please tell me the result logged for COc1ccc2c(c1)c(-c1cc(-c3cn(C)c4ccc(OC)cc34)[nH]n1)cn2C in this assay?
# output inactive

# input Could you please tell me the result logged for NC(=O)c1c(NC(=O)c2cccc(C(F)(F)F)c2)sc2c1CCC(=O)C2 in this assay?
# output active

# input Could you please tell me the result logged for COC12C=C/C(=C(/C(=O)OCc3csc(SC)n3)C(=O)CCCCCCCCC3(OC)C=C/C(=C(/C(=O)OCc4cnc(SC)s4)C(=O)CCCCCCCC1)O3)O2 (centres undefined) in this assay?
# output inactive

# input Could you please tell me the result logged for Cc1ccc(NCCNCC(O)CO)c2c(=O)c3ccccc3sc12 (centres undefined) in this assay?
# output inactive

# input Could you please tell me the result logged for CCOC(=O)C(=Cc1c(-c2ccccc2)[nH]c2ccccc12)C(=O)OCC in this assay?
# output inactive
